pIC50: −log10 of the molar value.
The listing below reports pIC50 for compounds tested on Dihydrofolate reductase (Pneumocystis carinii).
Sequence (P16184 whole entry): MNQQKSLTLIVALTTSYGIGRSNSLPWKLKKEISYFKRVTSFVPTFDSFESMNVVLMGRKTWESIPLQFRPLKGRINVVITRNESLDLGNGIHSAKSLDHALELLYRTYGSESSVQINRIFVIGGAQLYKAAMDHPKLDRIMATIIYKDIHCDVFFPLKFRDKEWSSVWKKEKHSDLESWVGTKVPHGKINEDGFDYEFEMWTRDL
Recorded endpoint: pIC50

INSERT INTO measurements (item_smiles, test_value) VALUES
  ('COc1ccc(C#CCCCC(=O)O)cc1Cc1cnc2nc(N)nc(N)c2c1C', 8.85),
  ('COc1ccc(OCCCCCC(=O)O)cc1Cc1cnc2nc(N)nc(N)c2c1C', 8.89),
  ('COc1ccc(OCCCCC(=O)O)cc1Cc1cnc2nc(N)nc(N)c2c1C', 9.29),
  ('COc1ccc(C#CCCC(=O)O)cc1Cc1cnc2nc(N)nc(N)c2c1C', 10.01),
  ('COc1ccc(I)cc1Cc1cnc2nc(N)nc(N)c2c1C', 8.24),
  ('COc1ccc(C#CCCCC(=O)O)c(Cc2cnc3nc(N)nc(N)c3c2C)c1', 8.92),
  ('CCOC(=O)CCCCCOc1ccc(OC)c(Cc2cnc3nc(N)nc(N)c3c2C)c1', 7.46),
  ('CCOC(=O)CCCOc1ccc(OC)c(Cc2cnc3nc(N)nc(N)c3c2C)c1', 8.19),
  ('COc1ccc(OCCCC(=O)O)cc1Cc1cnc2nc(N)nc(N)c2c1C', 9.37);
